- Tested on: T1, fHbp m002332 (Neisseria meningitidis; fHbp …, chimera)
- T1 chain: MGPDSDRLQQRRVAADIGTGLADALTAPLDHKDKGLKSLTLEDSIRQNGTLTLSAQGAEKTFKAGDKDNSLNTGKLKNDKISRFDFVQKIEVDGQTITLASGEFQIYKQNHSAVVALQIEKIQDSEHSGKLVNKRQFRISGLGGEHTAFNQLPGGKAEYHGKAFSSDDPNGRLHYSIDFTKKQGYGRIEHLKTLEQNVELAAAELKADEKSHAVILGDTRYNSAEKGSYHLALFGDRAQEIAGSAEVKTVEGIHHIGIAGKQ
- Test details: BLI
- Condition description: both partners purified
Metric: pKd
Give bare numbers, as −log10 of the molar value.

# map each binder to its pKd
1. chimeric antibody h12C1 (antibody, V domains shown, also called humanized 12C1; source: Expi293, purified (MabSelect SuRe, SEC); copies: 2 + 2) VH: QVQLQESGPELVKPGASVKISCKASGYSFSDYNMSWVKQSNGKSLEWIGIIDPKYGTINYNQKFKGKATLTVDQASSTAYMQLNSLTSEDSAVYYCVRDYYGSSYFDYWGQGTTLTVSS VL: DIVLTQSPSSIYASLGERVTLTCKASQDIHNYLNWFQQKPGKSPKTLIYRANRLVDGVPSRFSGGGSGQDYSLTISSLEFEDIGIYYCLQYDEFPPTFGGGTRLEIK
2. chimeric antibody hJAR5 (antibody, V domains shown, also called hJAR5-2; humanized JAR5; source: Expi293, purified (MabSelect SuRe, SEC); copies: 2 + 2) VH: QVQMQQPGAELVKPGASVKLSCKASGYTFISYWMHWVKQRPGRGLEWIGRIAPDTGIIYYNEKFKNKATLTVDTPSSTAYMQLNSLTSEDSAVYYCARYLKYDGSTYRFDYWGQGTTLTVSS VL: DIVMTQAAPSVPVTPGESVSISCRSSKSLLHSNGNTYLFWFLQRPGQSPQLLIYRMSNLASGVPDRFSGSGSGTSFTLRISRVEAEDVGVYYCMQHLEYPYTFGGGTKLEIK
3. mAb 4B3 (human) (antibody, V domains shown, also called 4B3-2; source: Expi293, purified (MabSelect SuRe, SEC); copies: 2 + 2) VH: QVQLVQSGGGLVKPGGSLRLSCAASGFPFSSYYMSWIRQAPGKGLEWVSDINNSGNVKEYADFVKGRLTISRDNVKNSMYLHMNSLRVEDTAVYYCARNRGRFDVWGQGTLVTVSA VL: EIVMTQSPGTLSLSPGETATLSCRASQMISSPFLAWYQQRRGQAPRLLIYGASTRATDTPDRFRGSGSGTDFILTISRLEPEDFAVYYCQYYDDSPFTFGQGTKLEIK
4. mAb 1E6 (human) (antibody, V domains shown, source: Expi293, purified (MabSelect SuRe, SEC); copies: 2 + 2) VH: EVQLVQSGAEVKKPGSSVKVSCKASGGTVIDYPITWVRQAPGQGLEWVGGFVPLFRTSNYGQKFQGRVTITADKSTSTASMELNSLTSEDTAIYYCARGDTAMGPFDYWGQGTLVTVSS VL: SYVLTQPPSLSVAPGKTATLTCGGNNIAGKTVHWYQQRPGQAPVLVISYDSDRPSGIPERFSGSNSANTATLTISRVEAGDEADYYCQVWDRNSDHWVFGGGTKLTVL

# output
[8.93, 9.18, 8.39, 9.15]

Source: paper PMC12319226
